- TEST TARGET: ZAP-70 (Homo sapiens)
- Sequence (P43403 1-619): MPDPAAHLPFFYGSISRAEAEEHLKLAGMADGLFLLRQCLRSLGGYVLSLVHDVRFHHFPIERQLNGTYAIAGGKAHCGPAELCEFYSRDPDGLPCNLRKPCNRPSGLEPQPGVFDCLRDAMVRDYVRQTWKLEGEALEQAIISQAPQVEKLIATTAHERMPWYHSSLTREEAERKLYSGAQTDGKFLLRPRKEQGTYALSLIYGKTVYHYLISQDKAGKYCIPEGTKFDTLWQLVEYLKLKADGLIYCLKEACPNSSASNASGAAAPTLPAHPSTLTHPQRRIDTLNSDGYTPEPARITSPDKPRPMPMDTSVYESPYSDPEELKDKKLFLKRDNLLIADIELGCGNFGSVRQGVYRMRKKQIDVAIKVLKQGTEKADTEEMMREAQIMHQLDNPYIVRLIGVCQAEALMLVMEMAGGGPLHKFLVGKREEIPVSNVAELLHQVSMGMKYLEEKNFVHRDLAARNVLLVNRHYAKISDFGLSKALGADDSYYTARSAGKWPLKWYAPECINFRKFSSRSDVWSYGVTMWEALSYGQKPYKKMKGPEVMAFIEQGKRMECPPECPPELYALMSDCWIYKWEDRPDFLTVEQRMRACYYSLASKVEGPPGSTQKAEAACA
- TEST SUMMARY: DELFIA assay (ZAP-70 kinase, phosphorylation of biotinylated poly(glu,tyr))
- Type: biochemical
- MEASUREMENT CONTEXT: ZAP-70 DELFIA, class symbols; read-out: Activity (IC50 in vitro)
pIC50: −log10 of the molar value.
REPORTED PROPERTY: pIC50

stdin: So what's the measured pIC50 for this one? "N#Cc1ccc(-c2ccc3nc(N4CCc5ccccc5C4)cc(C(=O)N4CCC[C@H]4CN4CCCC4)c3c2)cc1"
stdout: < 5.00

stdin: Same question, "O=C(c1cc(NCc2ccc(C(F)(F)F)cc2)nc2cc(-c3cc(F)cc(F)c3)ccc12)N1CCC[C@H]1CN1CCCC1" this time
stdout: 5.00 to 6.00

stdin: Same question, "N#Cc1ccc(-c2ccc3nc(NCc4cccc(C(F)(F)F)c4)cc(C(=O)N4CCC[C@H]4CN4CCCC4)c3c2)cc1" this time
stdout: < 5.00

stdin: Same question, "N#Cc1ccc(-c2ccc3nc(NCc4ccc(F)cc4Cl)cc(C(=O)N4CCC[C@H]4CN4CCCC4)c3c2)cc1" this time
stdout: < 5.00

* * *

Listed here: items and their measured IC50.
- TEST TARGET: ZAP-70 (Homo sapiens)
- TEST SUMMARY: DELFIA assay (ZAP-70 kinase, phosphorylation of biotinylated poly(glu,tyr))
- Format: biochemical
- MEASUREMENT CONTEXT: ZAP-70 DELFIA, class symbols; read-out: Activity (IC50 in vitro)

Would you please look over these solved cases?
MOLECULE	IC50
O=C(c1cc(Cc2ccc(N3CCN(CCc4ccncc4)CC3)cc2)nc2ccc(-c3ccc4c(c3)OCO4)cc12)N1CCCC1CN1CCCC1 (centres unmarked)	< 1 µM
N#Cc1ccc(-c2ccc3nc(NCc4cccc(O)c4)cc(C(=O)N4CCC[C@H]4CN4CCCC4)c3c2)cc1	1 to 10 µM
C[Si](C)(C)C#Cc1cc(C(=O)N2CCC[C@H]2CN2CCCC2)c2cc(-c3ccc4c(c3)OCO4)ccc2n1	< 1 µM
O=C(c1cc(NCc2ccc(C(F)(F)F)cc2)nc2ccc(-c3ccccc3F)cc12)N1CCC[C@H]1CN1CCCC1	1 to 10 µM
O=C(c1cc(NCc2ccc(C(F)(F)F)cc2)nc2ccc(-c3cccc(Cl)c3Cl)cc12)N1CCC[C@H]1CN1CCCC1	> 10 µM
O=C(c1cc(NCCN2CCCCC2)nc2ccc(-c3ccc4c(c3)OCO4)cc12)N1CCC[C@H]1CN1CCCC1	> 10 µM
CC1CN(c2ccc(Cc3cc(C(=O)N4CCCC4CN4CCCC4)c4cc(-c5ccc6c(c5)OCO6)ccc4n3)cc2)CCN1 (centres unmarked)	< 1 µM
O=C(c1cc(Nc2ccc3ncsc3c2)nc2ccc(-c3ccc4c(c3)OCO4)cc12)N1CCC[C@H]1CN1CCCC1	< 1 µM

stdin: So what's the measured IC50 for this one? "N#Cc1ccc(-c2ccc3nc(NCc4ccccc4N4CCCCC4)cc(C(=O)N4CCC[C@H]4CN4CCCC4)c3c2)cc1"
stdout: > 10 µM

stdin: Same question, "O=C(c1cc(NCc2ccc(C(F)(F)F)cc2)nc2ccc(-c3cccc(F)c3)cc12)N1CCC[C@H]1CN1CCCC1" this time
stdout: 1 to 10 µM

stdin: Same question, "CN(CCc1ccccc1)c1cc(C(=O)N2CCC[C@H]2CN2CCCC2)cc(N(C)Cc2ccccc2)n1" this time
stdout: 1 to 10 µM

stdin: Same question, "O=C(c1cc(Nc2ccc3c(c2)OCO3)nc2ccc(-c3ccc4c(c3)OCO4)cc12)N1CCC[C@H]1CN1CCCC1" this time
stdout: < 1 µM

stdin: Same question, CC(Nc1cc(C(=O)N2CCC[C@H]2CN2CCCC2)c2cc(-c3ccc(C#N)cc3)ccc2n1)c1ccc(Br)cc1 (some centres unmarked) this time
stdout: > 10 µM

stdin: Same question, "C[C@@H](Nc1cc(C(=O)N2CCC[C@H]2CN2CCCC2)c2cc(-c3ccc(C#N)cc3)ccc2n1)c1ccc2ccccc2c1" this time
stdout: > 10 µM

* * *

- TEST TARGET: ZAP-70 (Homo sapiens, UniProt P43403)
- Sequence (P43403 1-619): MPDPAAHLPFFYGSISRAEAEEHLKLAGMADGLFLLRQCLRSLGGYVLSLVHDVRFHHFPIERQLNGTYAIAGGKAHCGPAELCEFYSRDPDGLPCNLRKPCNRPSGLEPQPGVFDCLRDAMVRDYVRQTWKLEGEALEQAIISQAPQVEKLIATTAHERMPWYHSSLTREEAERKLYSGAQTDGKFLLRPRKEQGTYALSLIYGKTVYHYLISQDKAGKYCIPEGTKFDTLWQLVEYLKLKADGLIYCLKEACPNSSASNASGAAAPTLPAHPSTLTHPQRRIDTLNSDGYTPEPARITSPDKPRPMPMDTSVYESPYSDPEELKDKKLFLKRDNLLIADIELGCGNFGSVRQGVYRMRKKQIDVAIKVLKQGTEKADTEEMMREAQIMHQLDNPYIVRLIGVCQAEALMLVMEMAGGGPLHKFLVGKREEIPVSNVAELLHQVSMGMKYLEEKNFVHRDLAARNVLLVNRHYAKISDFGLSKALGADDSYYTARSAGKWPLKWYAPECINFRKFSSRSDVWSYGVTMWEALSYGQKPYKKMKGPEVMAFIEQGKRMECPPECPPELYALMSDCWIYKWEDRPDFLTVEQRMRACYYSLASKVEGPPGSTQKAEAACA
- TEST SUMMARY: DELFIA assay (ZAP-70 kinase, phosphorylation of biotinylated poly(glu,tyr))
- Format: biochemical
- MEASUREMENT CONTEXT: ZAP-70 DELFIA, class symbols; read-out: Activity (IC50 in vitro)
pIC50: −log10 of the molar value.
REPORTED PROPERTY: pIC50

Would you please look over these solved cases?
COMPOUND	TEST TARGET	pIC50
CC(C)(C)/C=C/c1ccc2nc(NCc3ccc(C(F)(F)F)cc3)cc(C(=O)N3CCC[C@H]3CN3CCCC3)c2c1	ZAP-70 (Homo sapiens, UniProt P43403)	< 5.00
O=C(c1cc(Cc2ccc(N3CCC4(CCNC4)CC3)cc2)nc2ccc(-c3ccc4c(c3)OCO4)cc12)N1CCCC1CN1CCCC1 (stereo not shown)	ZAP-70 (Homo sapiens, UniProt P43403)	> 6.00
O=C(c1cc(-c2ccc(Cl)c(Cl)c2)nc2ccc(-c3ccc(Cl)c(Cl)c3)cc12)N1CCC[C@H]1CN1CCCC1	ZAP-70 (Homo sapiens, UniProt P43403)	5.00 to 6.00
O=C(c1cc(NC2Cc3ccccc3C2)nc2ccc(-c3ccc4c(c3)OCO4)cc12)N1CCC[C@H]1CN1CCCC1	ZAP-70 (Homo sapiens, UniProt P43403)	5.00 to 6.00
N#Cc1ccc(-c2ccc3nc(NCc4cc(F)ccc4F)cc(C(=O)N4CCC[C@H]4CN4CCCC4)c3c2)cc1	ZAP-70 (Homo sapiens, UniProt P43403)	< 5.00
O=C(c1cc(NCc2ccccc2)nc2ccc(-c3ccc4c(c3)OCO4)cc12)N1CCC[C@H]1CN1CCCC1	ZAP-70 (Homo sapiens, UniProt P43403)	> 6.00

Kindly consider the entry below.
stdin: So what's the measured pIC50 for this one? "N#Cc1ccc(-c2ccc3nc(NCc4ccccc4F)cc(C(=O)N4CCC[C@H]4CN4CCCC4)c3c2)cc1"
stdout: < 5.00

* * *

- TEST TARGET: ZAP-70 (Homo sapiens)
- TEST SUMMARY: DELFIA assay (ZAP-70 kinase, phosphorylation of biotinylated poly(glu,tyr))
- Format: biochemical
- MEASUREMENT CONTEXT: ZAP-70 DELFIA, class symbols; read-out: Activity (IC50 in vitro)
pIC50: −log10 of the molar value.
REPORTED PROPERTY: pIC50

COMPOUND	TEST TARGET	MEASURED VALUE
O=C(c1cc(Sc2cccc(C(F)(F)F)c2)nc2ccc(-c3ccc4c(c3)OCO4)cc12)N1CCC[C@H]1CN1CCCC1	ZAP-70 (Homo sapiens)	> 6.00
CN(CCc1ccccc1)c1cc(C(=O)N2CCC[C@H]2CN2CCCC2)cc(Cc2ccccc2)n1	ZAP-70 (Homo sapiens)	< 5.00
Cn1cncc1-c1ccc2nc(NCc3ccc(C(F)(F)F)cc3)cc(C(=O)N3CCC[C@H]3CN3CCCC3)c2c1	ZAP-70 (Homo sapiens)	< 5.00
N#Cc1ccc(-c2ccc3nc(N4CCC(c5ccc(Cl)cc5)C4)cc(C(=O)N4CCC[C@H]4CN4CCCC4)c3c2)cc1 (stereo partly shown)	ZAP-70 (Homo sapiens)	< 5.00
N#Cc1ccc(-c2ccc3nc(NCc4cccc(Br)c4)cc(C(=O)N4CCC[C@H]4CN4CCCC4)c3c2)cc1	ZAP-70 (Homo sapiens)	< 5.00

stdin: So what's the measured pIC50 for this one? "FC(F)(F)c1ccc(CNc2cc(N3CCC[C@H]3CN3CCCC3)c3cc(-c4ccc5c(c4)OCO5)ccc3n2)cc1"
stdout: 5.00 to 6.00

stdin: Same question, "O=C(c1cc(NCc2ccc(C(F)(F)F)cc2)nc2ccc(-c3ccc4c(c3)OCO4)cc12)N1CCC[C@H]1CN1CCCC1" this time
stdout: > 6.00
